assay: Approximate solvent solubility of amorphous Compound 1 free base by solvent addition (Example 1); format: physicochemical; conditions: anisole, organic solvent or mixture, thermodynamic from solid; read-out: Approx. Solubility
reported_endpoint: solubility

solubility for "C[C@@H]1CCc2ncc(F)cc2[C@H]2CCCN2c2ccn3ncc(c3n2)C(=O)N1" ?
11.1 mg/mL

---

experiment: Approximate solvent solubility of amorphous Compound 1 free base by solvent addition (Example 1); format: physicochemical; conditions: 1,4-Dioxane, organic solvent or mixture, thermodynamic from solid; read-out: Approx. Solubility
reported_endpoint: solubility (µg/mL)
Number only, in µg/mL; omit the unit.

solubility for C[C@@H]1CCc2ncc(F)cc2[C@H]2CCCN2c2ccn3ncc(c3n2)C(=O)N1 [Compound 1] ?
8300

Where do these numbers come from? They come from patent US11091486B2.
